test system: Candida albicans; assay: Antifungal activity against Candida albicans ATCC 10231 after 48 to 72 hrs by broth microdilution method; format: functional
Active and inactive are the calls of the source. No rule for the calls is given here.
Measurement kind: MIC80

{"Compound": "COC(=O)N/N=C(\\c1ccc(O)cc1)C1C(=O)N(C)C(=O)N(C)C1=O", "MIC80": "inactive"}
{"Compound": "COC(=O)N/N=C(\\C)C1C(=O)NC(=O)NC1=O", "MIC80": "inactive"}
{"Compound": "COc1ccc(/C(=N\\CCCCCC(=O)O)C2C(=O)NC(=O)NC2=O)cc1", "MIC80": "inactive"}
{"Compound": "O=C1NC(=O)C(/C=N/c2ccc(-c3ccccc3)cc2)C(=O)N1", "MIC80": "inactive"}
{"Compound": "C/C(=N\\c1ccccc1)C1C(=O)N(C)C(=O)N(C)C1=O", "MIC80": "inactive"}

Now turn to the next compound.
Value of measured MIC80 for the entry `O=C1NC(=O)C(/C=N/c2nnc[nH]2)C(=O)N1` : inactive

Values were extracted from ChEMBL document CHEMBL3102843.
